- Test system: ERK4
- Construct: gene MAPK4
- ASSAY SETUP: concentration: 1 μM, replicates: in singlicate; n = 1
QUANTITY KIND: %Inh
Dear colleague, please send the value followed by its unit.

Reference set (3 entries):
{"COMPOUND": "CN1C(=O)C(Nc2cc(Cl)c(O)c(Cl)c2)=C(c2ccc(Cl)cc2)C1=O", "%Inh": "0%"}
{"COMPOUND": "COc1cc(Nc2nccc(N3CCC(NC(=O)C4COc5ccccc5O4)C3)n2)cc(OC)c1OC (stereo not drawn)", "%Inh": "15%"}
{"COMPOUND": "O=C(Nc1ccc2c(c1)OCO2)NC1CCN(c2ccnc(NCc3ccc(F)cc3)n2)CC1", "%Inh": "3%"}

Prompt: Return reported %Inh for target or system ERK4, item `COc1cc2ncn(-c3cc(OCCCc4ccccc4)c(C(N)=O)s3)c2cc1OC` .
Response: 0%

Prompt: Return reported %Inh for target or system ERK4, item `CC(C)(C)c1ccc(C(=O)Nc2cn3cc(-c4ccccc4)ccc3n2)cc1` .
Response: 6%

Prompt: Return reported %Inh for target or system ERK4, item `O=C1NC(=O)C(c2ccccc2)=C1Nc1cccc(O)c1` .
Response: 0%

Prompt: Return reported %Inh for target or system ERK4, item `COc1ccc(-c2cc3c(C)nc(N)nc3n([C@H]3CC[C@H](OCCO)CC3)c2=O)cn1` .
Response: 16%

Prompt: Return reported %Inh for target or system ERK4, item `COc1cccc(C2=C(Nc3cccc(C(=O)O)c3)C(=O)NC2=O)c1` .
Response: 0%

Prompt: Return reported %Inh for target or system ERK4, item `CCCC(=O)Nc1n[nH]c2ncc(-c3cccc4ccccc34)cc12` .
Response: 22%

---

- Tested on: EPHB6
- ASSAY SETUP: concentration: 1 μM, replicates: in singlicate; n = 1
QUANTITY KIND: %Inh (%)
Numeric only. Scale: %

Reference set (8 entries):
{"MOLECULE": "Nc1nc(N)c2nc(-c3ccccc3)[nH]c2n1 [SKF-12778]", "%Inh, %": 39}
{"MOLECULE": "COc1cc(Nc2nccc(N3CCC(NC(=O)C(C)c4ccc(Cl)cc4)C3)n2)cc(OC)c1OC (stereo not drawn) [GSK1379757]", "%Inh, %": 94.7}
{"MOLECULE": "COc1ccc(-c2cc3c(C)nc(N)nc3n([C@H]3CC[C@H](OCCO)CC3)c2=O)cn1", "%Inh, %": 4}
{"MOLECULE": "CCC(=O)c1c(-c2ccccc2)c2cc(Cl)ccc2c(=O)n1Cc1cc(S(C)(=O)=O)n(CC(F)F)n1", "%Inh, %": 0}
{"MOLECULE": "Cl.NS(=O)(=O)c1cccc(Nc2cc(-c3ccc(F)cc3)n[nH]2)c1 [GW824645]", "%Inh, %": 0}
{"MOLECULE": "COC(=O)c1c(-c2ccccc2)c2cc(Br)ccc2c(=O)n1Cc1ccc(S(C)(=O)=O)cc1", "%Inh, %": 34}
{"MOLECULE": "O=C1NC(=O)C(c2ccccc2)=C1Nc1cccc(O)c1 [SB-390534]", "%Inh, %": 0}
{"MOLECULE": "FC(F)(F)c1ccc(-c2ncn(CCCN3CCOCC3)c2-c2ccncc2)cc1 [SB-217780]", "%Inh, %": 18}

Prompt: Check the records and state %Inh for O=c1cc(N2CCOCC2)nc2n(Cc3ccc(F)c(Cl)c3)ccn12 [GSK2297099]
Response: 5

Prompt: Check the records and state %Inh for `COc1ccc(-c2coc3ccc(-c4nnc(SCc5cccc(C#N)c5)o4)cc23)cc1`
Response: 0

Prompt: Check the records and state %Inh for COc1cccc(-n2cnc3c(N)ncnc32)c1 [SKF-97416]
Response: 28

Prompt: Check the records and state %Inh for COc1cc2ncn(-c3cc(OCc4ccncc4Br)c(C(N)=O)s3)c2cc1OC [GW854278]
Response: 3

Prompt: Check the records and state %Inh for C[C@@H]1CC[C@H](C(=O)NC2CCCCC2)CN1c1cc(-c2ccc3c(N)n[nH]c3c2)nc(N)n1 [GSK2291363]
Response: 96.7

Prompt: Check the records and state %Inh for COc1cc(Nc2nccc(N3CCC(NC(=O)C4COc5ccccc5O4)C3)n2)cc(OC)c1OC (stereo not drawn) [GSK1379761]
Response: 93.9

Prompt: Check the records and state %Inh for Cc1nnc(-c2ccc(C)c(-c3ccc(C(=O)O)cc3)c2)o1 [GW608005]
Response: 0

Prompt: Check the records and state %Inh for Cc1nn2c(=O)cc(N3CCOCC3)nc2n1Cc1cccc(Cl)c1Cl [GSK2342769]
Response: 0

Prompt: Check the records and state %Inh for Cc1nnc(-c2ccc3ncn(-c4ccc(S(C)=O)cc4)c3c2)o1 (stereo not drawn)
Response: 3

Prompt: Check the records and state %Inh for `CCC(=O)c1c(-c2ccccc2)c2cc(Cl)ccc2c(=O)n1Cc1cc(S(C)(=O)=O)n(CC(N)=O)n1`
Response: 15

---

- Test system: RPS6KA4(Kin.Dom.1-N-terminal)
- ASSAY SETUP: concentration: 1 μM, replicates: in singlicate; n = 1
Define the label as satisfied when %Inh is strictly less than 5% and as not satisfied in all remaining cases.

Examples with answers:
{"COMPOUND": "COC(=O)c1c(-c2ccccc2)c2cc(Br)ccc2c(=O)n1Cc1ccc(S(C)(=O)=O)cc1", "ASSIGNED CLASS": "satisfied"}
{"COMPOUND": "COc1cc2ncn(-c3cc(OCc4ccncc4Br)c(C(N)=O)s3)c2cc1OC", "ASSIGNED CLASS": "satisfied"}
{"COMPOUND": "COc1ccc(Nc2nccc(N3CCC(NS(=O)(=O)c4ccc(NC(C)=O)cc4)C3)n2)cc1 (stereo not drawn)", "ASSIGNED CLASS": "satisfied"}
{"COMPOUND": "CCc1nc(-c2cccc(C)c2)c(-c2ccncc2)s1", "ASSIGNED CLASS": "satisfied"}
{"COMPOUND": "Nc1nccc2scc(-c3ccc4c(c3)CCN4C(=O)Cc3ccccc3)c12", "ASSIGNED CLASS": "not satisfied"}

Prompt: Field: below-cutoff. Rule: recorded %Inh strictly less than 5%. Subject: Cc1nnc(-c2ccc3ncn(-c4ccc(S(C)=O)cc4)c3c2)o1 (stereo not drawn)
Response: satisfied

Prompt: Field: below-cutoff. Rule: recorded %Inh strictly less than 5%. Subject: `CCC(=O)c1c(-c2ccccc2)c2cc(Cl)ccc2c(=O)n1Cc1cc(S(C)(=O)=O)n(CC(F)F)n1`
Response: satisfied

Prompt: Field: below-cutoff. Rule: recorded %Inh strictly less than 5%. Subject: `COc1ccc(-n2cnc3c(N)ncnc32)cc1`
Response: not satisfied

---

- Tested on: JNK3
- Construct: gene MAPK10
- ASSAY SETUP: concentration: 1 μM, replicates: in singlicate; n = 1
The label depends only on %Inh: class 1 if it is at least 7%, class 0 if it is smaller.

Examples with answers:
{"MOLECULE": "COC(=O)c1c(-c2ccccc2)c2cc(Br)ccc2c(=O)n1Cc1ccc(NC(=O)CCC(=O)O)cc1", "ASSIGNED CLASS": "class 1"}
{"MOLECULE": "O=C(NCc1cccs1)c1cc(C(=O)c2c(Cl)cccc2Cl)c[nH]1", "ASSIGNED CLASS": "class 0"}
{"MOLECULE": "O=C1NC(=O)C(c2ccccc2)=C1Nc1cccc(O)c1", "ASSIGNED CLASS": "class 0"}
{"MOLECULE": "Cc1ccc(-c2ccc3c(ccc4sc5c(c43)NC[C@@H](C)N=C5N(C)C)n2)cn1", "ASSIGNED CLASS": "class 0"}

Prompt: Determine whether this molecule has %Inh no lower than 7%: Cc1nnc(-c2ccc3ncn(-c4ccc(S(C)=O)cc4)c3c2)o1 (stereo not shown)
Response: class 0

Prompt: Determine whether this molecule has %Inh no lower than 7%: `Cc1nc(N(C)[C@H]2CN(C(=O)CC#N)CC[C@H]2C)c2cc[nH]c2n1`
Response: class 0

---

- Test system: FGFR1
pKd: −log10 of the molar value.
QUANTITY KIND: pKd

Prompt: Return reported pKd for target or system FGFR1, item `FC(F)(F)c1ccc(-c2ncn(CCCN3CCOCC3)c2-c2ccncc2)cc1` .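 Also: kd values determined as follow-up on hits from a single-replicate KINOMEscan panel screen.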
Response: < 5.00

---

The following molecules are listed with their measured %Inh values.
- Tested on: FLT1
- ASSAY SETUP: concentration: 1 μM, replicates: in singlicate; n = 1
Numeric only. Scale: %

Reference set (4 entries):
{"MOLECULE": "COc1ccc(-n2cnc3c(N)ncnc32)cc1 [SKF-97236]", "STUDY SYSTEM": "FLT1", "QUANTITY KIND": "%Inh", "TEST VALUE": 24}
{"MOLECULE": "CCc1nc(-c2cccc(C)c2)c(-c2ccncc2)s1", "STUDY SYSTEM": "FLT1", "QUANTITY KIND": "%Inh", "TEST VALUE": 13}
{"MOLECULE": "COc1ccc(-c2cc3c(C)nc(N)nc3n([C@H]3CC[C@H](O)CC3)c2=O)cn1", "STUDY SYSTEM": "FLT1", "QUANTITY KIND": "%Inh", "TEST VALUE": 0}
{"MOLECULE": "Cc1nc(N(C)[C@H]2CN(C(=O)CC#N)CC[C@H]2C)c2cc[nH]c2n1", "STUDY SYSTEM": "FLT1", "QUANTITY KIND": "%Inh", "TEST VALUE": 0}

# evaluate next
Prompt: Check the records and state %Inh for OCCCNc1nccc(-c2c(-c3cccc(C(F)(F)F)c3)nn3cc(C(F)(F)F)ccc23)n1 [GW630813]
Response: 24
